Test system: KB
ASSAY_PROCEDURE: Growth inhibition of human KB cells by methylene blue assay
Assay type: functional, cell-based
Doc: threshold 300 nM (exclusive). Items with IC50 beneath it return Y; others return N.

q: Hi there! Is IC50 for `Cc1ccc(CCC(=O)Nc2ncc(Cc3cc(Cl)ccc3Cl)s2)o1` below 300 nM, do you know?
a: Y

q: For `CCCn1cc(C(=O)c2cc(OC)c(OC)c(OC)c2)c2ccc(OC)cc21` , is the recorded IC50 below the cut-off of 300 nM?
a: Y

q: Confirm or reject: IC50 of `COc1ccc2c(C(=O)c3cc(OC)c(OC)c(OC)c3)cn(CCN3CCCCCC3)c2c1` lies strictly below 300 nM
a: Y

q: Confirm or reject: IC50 of `COc1ccc2c(C)cc(N/N=C/c3ccccc3O)nc2c1` lies strictly below 300 nM
a: N

q: Confirm or reject: IC50 of `CCCCn1c(C)c(C(=O)c2cc(OC)c(OC)c(OC)c2)c2ccc(OC)cc21` lies strictly below 300 nM
a: N

q: Does `COc1ccc2c(C(=O)c3cc(OC)c(OC)c(OC)c3)cn(CCCCO)c2c1` have IC50 strictly under 300 nM?
a: Y

q: IC50 under 300 nM? Item: `COc1ccc2c(C(=O)c3cc(OC)c(OC)c(OC)c3)cn(-c3ccc([N+](=O)[O-])cc3)c2c1`
a: Y

###

Test system: KB
ASSAY_PROCEDURE: Growth inhibition of human KB cells by methylene blue assay
Format: functional, cell-based
pIC50: −log10 of the molar value.
Decide by pIC50: equal to or exceeding 7 means criterion met, less means criterion not met.

q: Does the compound `COc1ccc2c(C(=O)c3cc(OC)c(OC)c(OC)c3)cn(CCO)c2c1` have recorded pIC50 that is 7 or more?
a: criterion met

q: For this compound, is measured pIC50 7 or higher? `CCCCCc1[nH]c2cc(OC)ccc2c1C(=O)c1cc(OC)c(OC)c(OC)c1`
a: criterion met

q: Determine whether measured pIC50 meets or exceeds 7 for `CCN(CC)CCn1c(C)c(C(=O)c2cc(OC)c(OC)c(OC)c2)c2ccc(OC)cc21`
a: criterion not met

q: Reported pIC50 reaches at least 7 for `Cc1ccc(C)c(Nc2cc(C)nc(-c3ccccc3O)n2)c1` ?
a: criterion not met

q: Please indicate if the recorded pIC50 for `COc1ccc2c(C(=O)c3cc(OC)c(OC)c(OC)c3)c(CCCCCO)[nH]c2c1` meets or exceeds 7.
a: criterion met

q: Form field: pIC50 at least 7? Entry: `COc1ccc2c(C(=O)c3cc(OC)c(OC)c(OC)c3)cn(C(C)C)c2c1`
a: criterion not met

q: In plain terms: is recorded pIC50 at least 7 for `COc1ccc2c(C(=O)c3cc(OC)c(OC)c(OC)c3)c(CN(C)C)[nH]c2c1` ?
a: criterion met

q: Answer whether pIC50 of `COc1ccc2c(C(=O)c3cc(OC)c(OC)c(OC)c3)cn(CCN3CCN(c4ccccn4)CC3)c2c1` is greater than or equal to 7.
a: criterion not met

q: Hi, just wondering whether `COc1ccc2c(C(=O)c3cc(OC)c(OC)c(OC)c3)cn(CCCCN(C)C)c2c1` shows pIC50 of 7 or higher.
a: criterion not met

q: Please tell me: is the compound `COc1ccc2c(C(=O)c3cc(OC)c(OC)c(OC)c3)cn(CCN(C)C)c2c1` at or over 7 in terms of pIC50?
a: criterion not met

q: Exam item: decide whether the reported pIC50 for `COc1ccc2c(C(=O)c3cc(OC)c(OC)c(OC)c3)cn(CCN3CCC[C@@H]3CO)c2c1` is at least 7.
a: criterion not met

q: Record `COc1ccc2c(C(=O)c3cc(OC)c(OC)c(OC)c3)cn(CCCCCN(C)C)c2c1` ; criterion: pIC50 no lower than 7. Met?
a: criterion not met

q: Would you say `COc1ccc2c(C(=O)c3cc(OC)c(OC)c(OC)c3)cn(C(=O)N3CCOCC3)c2c1` shows pIC50 at minimum 7?
a: criterion not met

q: Check if pIC50 >= 7 (inclusive). Item: `CCCCc1[nH]c2cc(OC)ccc2c1C(=O)c1cc(OC)c(OC)c(OC)c1`
a: criterion met

q: Is reported pIC50 greater than or equal to 7 here: `COc1ccc2c(C(=O)c3cc(OC)c(OC)c(OC)c3)cn(CCN3CCCC3)c2c1`
a: criterion not met

q: Does `COc1ccc2c(C(=O)c3cc(OC)c(OC)c(OC)c3)c(C)n(CCN(C)C)c2c1` have a reported pIC50 of at least 7?
a: criterion not met

q: Does `COC(=O)c1[nH]c2cc(OC)ccc2c1C(=O)c1cc(OC)c(OC)c(OC)c1` have a reported pIC50 of at least 7?
a: criterion met

q: Evaluate `COc1ccc2c(C(=O)c3cc(OC)c(OC)c(OC)c3)cn(CCN3CCN(C)CC3)c2c1` : pIC50 at minimum 7?
a: criterion not met

q: Could you verify whether the entry `CCCCCCc1[nH]c2cc(OC)ccc2c1C(=O)c1cc(OC)c(OC)c(OC)c1` shows pIC50 of no less than 7?
a: criterion met

q: Form field: pIC50 at least 7? Entry: `COc1ccc(-n2cc(C(=O)c3cc(OC)c(OC)c(OC)c3)c3ccc(OC)cc32)cc1`
a: criterion not met

q: In plain terms: is recorded pIC50 at least 7 for `CCCc1[nH]c2cc(OC)ccc2c1C(=O)c1cc(OC)c(OC)c(OC)c1` ?
a: criterion met

q: Decide: pIC50 of `COc1ccc2c(C(=O)c3cc(OC)c(OC)c(OC)c3)c(C)n(CCN3CCCCC3)c2c1` >= 7?
a: criterion not met

q: Can `CCN(CC)CCn1cc(C(=O)c2cc(OC)c(OC)c(OC)c2)c2ccc(OC)cc21` be said to have pIC50 at or above 7?
a: criterion not met

q: Can `COc1ccc2c(C(=O)c3cc(OC)c(OC)c(OC)c3)cn(C)c2c1` be said to have pIC50 at or above 7?
a: criterion met

q: // inclusive: pIC50 at least 7? input: `CCCCCCn1cc(C(=O)c2cc(OC)c(OC)c(OC)c2)c2ccc(OC)cc21`
a: criterion not met

q: Is reported pIC50 greater than or equal to 7 here: `COc1ccc2c(C(=O)c3cc(OC)c(OC)c(OC)c3)cn(CCCN(C)C)c2c1`
a: criterion not met

q: # bool: pIC50 of `CCCCCn1cc(C(=O)c2cc(OC)c(OC)c(OC)c2)c2ccc(OC)cc21` >= 7
a: criterion not met

q: Does the reported pIC50 for `CCOC(=O)Cc1[nH]c2cc(OC)ccc2c1C(=O)c1cc(OC)c(OC)c(OC)c1` fall at or above the 7 mark?
a: criterion met

q: Identify whether the reported pIC50 of the following compound is 7 or greater: `COc1ccc2c(C(=O)c3cc(OC)c(OC)c(OC)c3)cn(Cc3ccncc3)c2c1`
a: criterion not met

q: Decide: pIC50 of `COc1ccc2c(C(=O)c3cc(OC)c(OC)c(OC)c3)cn(CCCCCCN(C)C)c2c1` >= 7?
a: criterion not met

q: Could you verify whether the entry `COc1ccc2c(C(=O)c3cc(OC)c(OC)c(OC)c3)cn(S(=O)(=O)c3ccccc3)c2c1` shows pIC50 of no less than 7?
a: criterion not met

q: Please check the record `COc1ccc2ccccc2c1-c1cc(C(=O)N/N=C/c2cccs2)[nH]n1` and state if its pIC50 is at or above 7.
a: criterion not met

q: Please indicate if the recorded pIC50 for `COc1ccc2c(C(=O)c3cc(OC)c(OC)c(OC)c3)c(CO)[nH]c2c1` meets or exceeds 7.
a: criterion met

q: Answer whether pIC50 of `COc1ccc2c(C(=O)c3cc(OC)c(OC)c(OC)c3)c(CCCCO)[nH]c2c1` is greater than or equal to 7.
a: criterion met

###

System: KB
ASSAY_PROCEDURE: Growth inhibition of human KB cells by methylene blue assay
Type: functional, cell-based
I'd be grateful if you could share measured IC50 for these entries.
Respond with the bare value in nM.

q: Lab note: KB assay, enter IC50 for `COc1ccc2c(C(=O)c3cc(OC)c(OC)c(OC)c3)cn(CCN3CCCCC3)c2c1` here
a: 93

q: Please report IC50 with KB for item `COc1ccc2c(C(=O)c3cc(OC)c(OC)c(OC)c3)c(CCCO)[nH]c2c1` .
a: 92

q: Give reported IC50 for `CCOC(=O)n1cc(C(=O)c2cc(OC)c(OC)c(OC)c2)c2ccc(OC)cc21` (KB)
a: 73

q: Give KB IC50 for the following molecule: `CCn1cc(C(=O)c2cc(OC)c(OC)c(OC)c2)c2ccc(OC)cc21`
a: 64

q: Quote IC50 with test system KB for `COc1ccc2c(C(=O)c3cc(OC)c(OC)c(OC)c3)cn(CCCCCCO)c2c1`
a: 70

Ref: ChEMBL document CHEMBL1158451
